TEST_SETTINGS: in n-butanol, 308.15 K
RESULT_TYPE: solubility (mole fraction)

Measured solubility (mole fraction) of NC(=O)C[C@H](NC(=O)OCc1ccccc1)C(=O)O : 0.000846

====

TEST_SETTINGS: in n-pentanol, 288.15 K
RESULT_TYPE: solubility (mole fraction)
Answer as a number with no unit attached.

Measured solubility (mole fraction) of NC(=O)C[C@H](NC(=O)OCc1ccccc1)C(=O)O : 0.000221

====

TEST_SETTINGS: in water, 288.15 K
RESULT_TYPE: solubility (mole fraction)
Answer as a number with no unit attached.

Measured solubility (mole fraction) of NC(=O)C[C@H](NC(=O)OCc1ccccc1)C(=O)O : 2.75e-05
